- testSystem: human α2C receptor (Homo sapiens, UniProt P18825)
- Construct: expressed in transfected cells; host or cells: CHO cells, also recombinantly expressing chimeric G protein Gαqi3 and mitochondrial obelin (mtOb)
- Sequence (P18825 whole entry): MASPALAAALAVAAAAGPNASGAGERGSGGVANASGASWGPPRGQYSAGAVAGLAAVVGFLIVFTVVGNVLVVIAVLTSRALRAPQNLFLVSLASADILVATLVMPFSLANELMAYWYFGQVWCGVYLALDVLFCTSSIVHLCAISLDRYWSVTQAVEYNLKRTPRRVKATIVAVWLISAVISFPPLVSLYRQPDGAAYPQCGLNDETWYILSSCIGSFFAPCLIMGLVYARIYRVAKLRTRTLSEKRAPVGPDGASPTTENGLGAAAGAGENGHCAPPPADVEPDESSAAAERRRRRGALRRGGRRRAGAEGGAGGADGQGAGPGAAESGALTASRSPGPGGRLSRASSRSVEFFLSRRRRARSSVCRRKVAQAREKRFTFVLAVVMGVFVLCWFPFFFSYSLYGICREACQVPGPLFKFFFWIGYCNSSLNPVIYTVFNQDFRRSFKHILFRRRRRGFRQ
- protocol: Antagonism against the adrenoreceptor α2C (luminescence, recombinant CHO cell line)
- Type: cell-based
- experimentalConditions: antagonism against adrenoreceptor α2C; noradrenaline 20 nM; tested up to 10 μM; read-out: IC50
- Protocol: Antagonism against the adrenoreceptor α1A was tested using a recombinant human α1A receptor CHO cell line which additionally also recombinantly expresses mtAeq (mitochondrial aequorin). […] Luminescence measurements were carried out on white 384-well microtitre plates. […] The IC50 values were calculated from the appropriate dose-response curves.
Where a name gives a salt, the structure may show the parent alone.
Below is a list of entries, each paired with its recorded IC50 value.
All answers are understood in nM, so give the number only.

Cc1nnc(C2CCCN(C3CCN(C(=O)c4ccc(C(C)(C)C)cc4)CC3)C2)o1 (centres unmarked) [Example 18] ... 129
CC(C)(O)c1ccc(C(=O)N2CCC(N3CCCC(COC4CC4)C3)CC2)cc1 (centres unmarked) [Example 118] ... 8
CCOC[C@@H]1CCCN(C2CCN(C(=O)c3ccc(C(C)(C)O)cc3)CC2)C1 (single isomer, unassigned; enantiomer 2) [Example 121] ... 5
C[C@@H]1CCCN(C2CCN(C(=O)c3ccc(C(=O)NCc4cc(C(F)(F)F)c(Cl)cn4)cc3)CC2)C1 [Example 92] ... 160
CC1CCCN(C2CCN(C(=O)c3ccc(C(=O)N(C)CC4(C)COC4)cc3)CC2)C1 (centres unmarked) [Example 52] ... 182

Below: the item to evaluate.
Form field IC50, entry CCOC(=O)Cc1ccc(C(=O)N2CCC(N3CCCC(C(=O)OCC)C3)CC2)cc1 (centres unmarked) [Example 34, trifluoroacetic acid salt] : 86

Reference source for all entries: patent US20160318866A1
